Origin of values: ChEMBL document CHEMBL3991601

molecular target: Serine/threonine-protein kinase Nek3 (Homo sapiens, UniProt P51956); note: in the data inactive means no Kd found up to 30 µM
Sequence (P51956 whole entry): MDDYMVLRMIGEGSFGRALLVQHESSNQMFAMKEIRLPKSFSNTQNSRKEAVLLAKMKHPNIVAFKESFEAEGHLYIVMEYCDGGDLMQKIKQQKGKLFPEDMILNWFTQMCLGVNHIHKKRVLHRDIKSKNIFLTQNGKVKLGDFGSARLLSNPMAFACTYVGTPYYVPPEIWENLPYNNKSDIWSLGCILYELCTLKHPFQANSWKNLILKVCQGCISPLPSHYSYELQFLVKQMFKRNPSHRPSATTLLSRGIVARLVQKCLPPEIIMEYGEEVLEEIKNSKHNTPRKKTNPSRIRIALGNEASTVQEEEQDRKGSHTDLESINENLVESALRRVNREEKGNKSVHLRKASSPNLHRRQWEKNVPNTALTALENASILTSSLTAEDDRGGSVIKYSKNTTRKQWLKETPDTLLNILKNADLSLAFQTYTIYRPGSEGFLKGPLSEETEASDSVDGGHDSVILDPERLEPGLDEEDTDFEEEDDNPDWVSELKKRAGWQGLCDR
The source made the active and inactive calls.
Can you answer with just one of these options? TRUE = active, FALSE = inactive

Illustrative cases are given below, each with its answer.
N#CCNC(=O)c1ccc(-c2ccnc(Nc3ccc(N4CCOCC4)cc3)n2)cc1 = TRUE
C#Cc1cccc(Nc2ncnc3cc4c(cc23)OCCOCCOCCO4)c1 = FALSE
Cc1ccc(C(=O)Nc2ccc(Oc3cc4cnn(C)c4cc3-c3cn[nH]c3)c(F)c2)c(=O)n1-c1ccc(F)cc1 = FALSE

Query string: Recorded test call requested for `CNC(=O)c1cccc(-c2ccc3c(N4CCOC[C@@H]4C)nc(N4CCOC[C@@H]4C)nc3n2)c1`
Result string: FALSE

Query string: Recorded test call requested for `COc1ccc2c(OCc3nnc4ccc(-c5ccccc5)nn34)ccnc2c1`
Result string: FALSE

Query string: Recorded test call requested for `CCc1cc2c(cc1N1CCC(N3CCOCC3)CC1)C(C)(C)c1[nH]c3cc(C#N)ccc3c1C2=O`
Result string: FALSE

Query string: Recorded test call requested for `COCCN1CCN(Cc2ccc(-c3n[nH]c4c3C(=O)c3c(NC(=O)NN5CCOCC5)cccc3-4)cc2)CC1`
Result string: FALSE

Query string: Recorded test call requested for `C=CCn1c(=O)c2cnc(Nc3ccc(N4CCN(C)CC4)cc3)nc2n1-c1cccc(C(C)(C)O)n1`
Result string: TRUE

Query string: Recorded test call requested for `O=C(O)c1ccc2c(c1)nc(Nc1cccc(Cl)c1)c1ccncc12`
Result string: FALSE

Query string: Recorded test call requested for `CNC(=O)c1cc(COc2nnc(Nc3ccc(Cl)cc3)c3ccoc23)ccn1`
Result string: FALSE

Query string: Recorded test call requested for `CN1CCN(c2nc(C3=C(c4c[nH]c5ccccc45)C(=O)NC3=O)c3ccccc3n2)CC1`
Result string: FALSE

###

Measurement record for Tyrosine--tRNA ligase, cytoplasmic (Homo sapiens, UniProt P54577); quantity recorded: Kd.
Calls of active or inactive are those of the source.

Examples from the recorded data:
COc1cc2ncnc3c2cc1OCCCCCN(C)Cc1ccc(Br)cc1N3 = > 30 µM (inactive)
C#Cc1cccc(Nc2ncnc3cc4c(cc23)OCCOCCOCCO4)c1 = > 30 µM (inactive)

Could you now consider this next molecule?
Query string: Return Kd (reported value) for this molecule: `Cc1c(Cn2c(C)nc3c(C(=O)O)cc(N4CCOCC4)cc32)cccc1C(F)(F)F`
Result string: > 30 µM (inactive)

###

target: Protein-tyrosine kinase 2-beta (Homo sapiens, UniProt Q14289); note: in the data inactive means no Kd found up to 30 µM
Sequence (Q14289 whole entry): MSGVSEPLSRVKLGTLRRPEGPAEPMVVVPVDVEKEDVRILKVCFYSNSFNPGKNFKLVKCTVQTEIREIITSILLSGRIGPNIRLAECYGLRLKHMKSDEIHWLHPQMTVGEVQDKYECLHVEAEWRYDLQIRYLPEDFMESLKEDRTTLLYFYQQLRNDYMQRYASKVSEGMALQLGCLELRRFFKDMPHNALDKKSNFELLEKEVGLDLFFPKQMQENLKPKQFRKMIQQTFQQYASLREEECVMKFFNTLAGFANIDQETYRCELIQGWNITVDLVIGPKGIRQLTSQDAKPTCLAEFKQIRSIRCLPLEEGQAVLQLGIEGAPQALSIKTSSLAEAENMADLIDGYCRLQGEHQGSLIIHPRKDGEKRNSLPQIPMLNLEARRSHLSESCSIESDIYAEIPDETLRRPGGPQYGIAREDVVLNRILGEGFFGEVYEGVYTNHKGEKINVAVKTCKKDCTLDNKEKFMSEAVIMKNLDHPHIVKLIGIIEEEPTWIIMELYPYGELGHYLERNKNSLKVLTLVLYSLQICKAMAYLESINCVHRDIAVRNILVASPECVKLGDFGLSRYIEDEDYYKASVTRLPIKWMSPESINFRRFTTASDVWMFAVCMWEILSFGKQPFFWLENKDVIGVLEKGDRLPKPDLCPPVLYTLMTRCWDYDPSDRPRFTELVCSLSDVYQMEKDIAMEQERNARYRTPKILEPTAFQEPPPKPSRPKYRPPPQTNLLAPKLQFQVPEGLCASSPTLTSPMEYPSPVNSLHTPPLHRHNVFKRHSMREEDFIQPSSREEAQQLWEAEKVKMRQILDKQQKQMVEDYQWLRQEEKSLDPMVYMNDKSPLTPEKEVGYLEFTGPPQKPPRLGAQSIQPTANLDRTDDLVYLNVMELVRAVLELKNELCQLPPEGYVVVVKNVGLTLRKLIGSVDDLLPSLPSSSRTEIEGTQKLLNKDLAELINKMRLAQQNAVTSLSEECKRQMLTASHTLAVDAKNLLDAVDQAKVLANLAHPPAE
Calls of active or inactive are those of the source.
Can you answer with just one of these options? active, inactive

Illustrative cases are given below, each with its answer.
C=CCN(/C=C1/C(=O)O[C@H](COC)[C@@]2(C)C1=C(O)C(=O)C1=C2[C@H](OC(C)=O)C[C@]2(C)C(=O)CC[C@@H]12)CC=C [SONOLISIB] = inactive
Cc1cc(Nc2nc(N[C@@H](C)c3ncc(F)cn3)ncc2Cl)n[nH]1 [AZD-1480] = active
NC[C@@](O)(c1ccc(Cl)cc1)c1ccc(-c2cn[nH]c2)cc1 [AT-13148] = inactive
CCc1cc2c(cc1N1CCC(N3CCOCC3)CC1)C(C)(C)c1[nH]c3cc(C#N)ccc3c1C2=O [ALECTINIB] = inactive
CCc1nc(C(N)=O)c(Nc2ccc(N3CCC(N4CCN(C)CC4)CC3)c(OC)c2)nc1NC1CCOCC1 [GILTERITINIB] = active

Query string: Recorded test call requested for COc1ccc2c(OCc3nnc4ccc(-c5ccccc5)nn34)ccnc2c1 [AMG-208]
Result string: inactive

Query string: Recorded test call requested for Cc1c(NC(=O)OC[C@@H]2COCCN2)cn2ncnc(Nc3ccc4c(cnn4Cc4cccc(F)c4)c3)c12 [AC-480]
Result string: inactive

Query string: Recorded test call requested for COc1cc(F)c(F)c(Nc2ccc(I)cc2F)c1NS(=O)(=O)C1(C[C@H](O)CO)CC1 [REFAMETINIB]
Result string: inactive
